The following binders are shown together with reported OD450 values.
# Target System: T1, human MSLN-R3-3 polypeptide (human)
# T1 construct: also called human MSLN-R3-3 protein; hMSLN-R3-3
# Experiment Summary: ELISA on coated antigen, antibody 0.01 nM
Give just the numeric value; OD450 need not be written.

S009-F2.38.12 (antibody, human IgG1, kappa, V domains shown, Human-murine chimeric antibody: murine VH/VL on human IgG1 heavy and kappa light constant regions) VH: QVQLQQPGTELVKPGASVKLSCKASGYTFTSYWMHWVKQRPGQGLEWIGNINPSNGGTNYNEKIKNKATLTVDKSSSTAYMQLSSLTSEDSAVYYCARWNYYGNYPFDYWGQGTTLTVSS VL: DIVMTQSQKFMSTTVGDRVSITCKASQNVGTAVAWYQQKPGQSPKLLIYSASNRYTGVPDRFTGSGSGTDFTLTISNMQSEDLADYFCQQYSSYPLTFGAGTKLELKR	0.05

-- ask Sample S009-F2.21.4 (antibody, human IgG1, kappa, V domains shown, Human-murine chimeric antibody: murine VH/VL on human IgG1 heavy and kappa light constant regions) VH: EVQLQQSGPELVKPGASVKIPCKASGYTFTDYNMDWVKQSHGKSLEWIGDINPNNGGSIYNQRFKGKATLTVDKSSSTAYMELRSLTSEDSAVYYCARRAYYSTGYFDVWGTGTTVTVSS VL: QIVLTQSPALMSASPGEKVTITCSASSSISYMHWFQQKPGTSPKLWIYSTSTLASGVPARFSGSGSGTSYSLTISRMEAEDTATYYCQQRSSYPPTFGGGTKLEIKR — what was its OD450?
-- reply 0.05
